# Experimental System: human salt-induced kinase 3 (SIK3) (Homo sapiens)
# Sequence (Q9Y2K2 whole entry): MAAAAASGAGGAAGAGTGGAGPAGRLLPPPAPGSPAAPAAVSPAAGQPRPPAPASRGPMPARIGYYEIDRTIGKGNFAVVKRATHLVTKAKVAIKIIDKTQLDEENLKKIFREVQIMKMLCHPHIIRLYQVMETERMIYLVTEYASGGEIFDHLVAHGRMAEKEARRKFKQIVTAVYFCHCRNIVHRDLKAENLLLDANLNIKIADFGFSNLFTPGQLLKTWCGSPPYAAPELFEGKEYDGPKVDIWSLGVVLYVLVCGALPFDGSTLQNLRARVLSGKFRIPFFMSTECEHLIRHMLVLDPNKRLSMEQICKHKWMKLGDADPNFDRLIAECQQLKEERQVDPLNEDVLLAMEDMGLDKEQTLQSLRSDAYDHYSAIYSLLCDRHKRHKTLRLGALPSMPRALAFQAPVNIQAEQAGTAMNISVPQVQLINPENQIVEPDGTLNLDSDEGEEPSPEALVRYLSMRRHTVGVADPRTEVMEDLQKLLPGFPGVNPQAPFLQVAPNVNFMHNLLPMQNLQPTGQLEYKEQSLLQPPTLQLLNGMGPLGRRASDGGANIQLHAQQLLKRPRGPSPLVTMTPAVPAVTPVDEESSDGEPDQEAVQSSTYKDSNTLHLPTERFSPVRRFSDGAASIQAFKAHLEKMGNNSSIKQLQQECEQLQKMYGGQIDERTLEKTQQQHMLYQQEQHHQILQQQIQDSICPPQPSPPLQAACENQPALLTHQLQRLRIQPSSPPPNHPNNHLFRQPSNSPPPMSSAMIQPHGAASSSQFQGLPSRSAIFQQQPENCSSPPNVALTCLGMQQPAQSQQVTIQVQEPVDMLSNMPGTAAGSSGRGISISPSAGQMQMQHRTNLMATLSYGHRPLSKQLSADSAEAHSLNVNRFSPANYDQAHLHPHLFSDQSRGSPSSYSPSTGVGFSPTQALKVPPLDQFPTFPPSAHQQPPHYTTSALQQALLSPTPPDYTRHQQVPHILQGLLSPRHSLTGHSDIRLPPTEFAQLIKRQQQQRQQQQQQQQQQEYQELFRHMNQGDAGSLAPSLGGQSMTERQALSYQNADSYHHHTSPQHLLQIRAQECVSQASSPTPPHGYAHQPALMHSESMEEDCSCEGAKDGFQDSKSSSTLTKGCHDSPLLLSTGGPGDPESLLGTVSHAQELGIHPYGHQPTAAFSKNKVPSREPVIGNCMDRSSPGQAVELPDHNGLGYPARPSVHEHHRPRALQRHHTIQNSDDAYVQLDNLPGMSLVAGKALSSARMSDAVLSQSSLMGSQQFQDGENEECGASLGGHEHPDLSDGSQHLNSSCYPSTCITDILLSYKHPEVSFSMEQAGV
# Assay Text: KinaseProfiler radiometric protein kinase assay (Eurofins), ATP at Km
Test Readout: pIC50
By convention, pIC50 is the negative base-10 log of a molar concentration.

What does the data say about its pIC50? Entry: `COc1cc(/C=C/C(=O)CC(=O)/C=C/c2ccc(O)c(OC)c2)ccc1O` 6.88
